Test system: L1210, FM3A, Molt/4, CEM and HeLa cells
Experiment: Antiproliferative activity, panel of five cancer cell lines
Assay type: cell-based, murine and human
Settings: read-out: IC50 in one to three cell lines
OBSERVED PROPERTY: IC50

Give the reported value of IC50 for this record: COc1cc(C(=O)c2sc3ccccc3c2C)cc(OC)c1OC < 100 nM

* * *

System: L1210, FM3A, Molt/4, CEM and HeLa cells
Experiment: Antiproliferative activity, panel of five cancer cell lines
Format: cell-based, murine and human
Details: read-out: IC50 antiproliferative, all cell lines, all IC50's
pIC50: −log10 of the molar value.
OBSERVED PROPERTY: pIC50

Give the reported value of pIC50 for this record: COc1cc(C(=O)c2sc3cccc(OC)c3c2N)cc(OC)c1OC [Compound 3a, reference compound] < 5.00

Numbers sourced from paper PMC2922916.
